protocol_notes: Solubility of peptides and HBS helices
Assay type: physicochemical
assay_endpoint: Solubility

substance="Ac-FEGLLRLWLRKAEEAN-NH2 (N-terminus assumed) [Peptide 12]" result=soluble
substance="Ac-FGEGIYRTDILRTEEGN-NH2 (N-terminus assumed) [Peptide 2]" result=partially
substance="Ac-AEGIYRTDILRTEEGN-NH2 (N-terminus assumed) [Peptide 3]" result=partially
substance="Ac-FEGIYRTDILRTEEGN-NH2 (N-terminus assumed) [Peptide 1]" result=partially
substance="Ac-FEAIYRLEKLKAEEAN-NH2 (N-terminus assumed) [Peptide 15]" result=soluble
substance="Ac-AEGIYRADILRTEEGN-NH2 (N-terminus assumed) [Peptide 4]" result=partially
substance="Ac-FEGIYRTELLKAEEAN-NH2 (N-terminus assumed) [Peptide 6]" result=soluble
substance="Ac-FEGIYRTDILR-NH2 (N-terminus assumed) [Peptide 5]" result=soluble
substance="Ac-FEGIYRLELLKAEEAN-NH2 (N-terminus assumed) [Peptide 7]" result=soluble
substance="Ac-FEGIYRLELLK-NH2 (N-terminus assumed) [Peptide 8]" result=soluble
substance="Ac-FEAIYRLELLKAEEAN-NH2 (N-terminus assumed) [Peptide 13]" result=soluble
